Where do the numbers come from? From ChEMBL document CHEMBL4428071.

test: Cytotoxicity mouse BA/F3 cells assessed as cell growth inhibition after 72 hrs by cell titer-glo assay; format: cell-based, BaF3
Lab note: cut-off is 2000 nM. Strictly less in GI50 at 72 h is fulfilled. Exactly 2000 nM or more is not fulfilled.

| Compound | Category |
| --- | --- |
| Cc1ccc(NC(=O)c2ccc(CN3CCN(C)CC3)cc2)cc1Nc1nccc(-c2cccnc2)n1 | not fulfilled |
| COc1cc2nccc(Oc3cccc(NC(=O)Nc4ccc(N5CCC(NC(=O)C6CCN(C(=O)C7CC7)CC6)CC5)c(C(F)(F)F)c4)c3)c2cc1OC | fulfilled |
| CCC(=O)NC1CCN(c2ccc(NC(=O)C3(C(=O)Nc4cccc(Oc5ccnc6cc(OC)c(OC)cc56)c4)CC3)cc2C(F)(F)F)CC1 | not fulfilled |
| COc1cc2nccc(Oc3cccc(NC(=O)Nc4ccc(N5CCC(NC(=O)CN)CC5)c(C(F)(F)F)c4)c3)c2cc1OC | not fulfilled |
| CCN(CC)CCNC(=O)c1c(C)[nH]c(/C=C2\C(=O)Nc3ccc(F)cc32)c1C | fulfilled |
| COc1cc2nccc(Oc3cccc(NC(=O)Nc4ccc(N5CCC(NC(=O)c6cccnc6)CC5)c(C(F)(F)F)c4)c3)c2cc1OC | not fulfilled |
| COc1cc2nccc(Oc3cccc(NC(=O)Nc4ccc(N5CCC(NC(=O)C(C)N)CC5)c(C(F)(F)F)c4)c3)c2cc1OC (single isomer, unassigned) | not fulfilled |
| CCC(=O)NC1CCN(c2ccc(C(=O)Nc3cccc(Oc4ccnc5cc(OC)c(OC)cc45)c3)cc2C(F)(F)F)CC1 | not fulfilled |
| COc1cc2nccc(Oc3cccc(NC(=O)Nc4ccc(N5CCC(NC(=O)CN6CCCCC6)CC5)c(C(F)(F)F)c4)c3)c2cc1OC | fulfilled |
| COc1cc2nccc(Oc3cccc(NC(=O)Nc4ccc(N5CCC(NC(=O)CC(C)(C)C)CC5)c(C(F)(F)F)c4)c3)c2cc1OC | not fulfilled |
| CCC(=O)NC1CCN(c2ccc(NC(=O)Nc3cccc(Oc4ccnc5cc(OC)c(OC)cc45)c3)cc2C(F)(F)F)CC1 | fulfilled |
| CCC(=O)NC1CCN(c2ccc(NC(=O)Nc3cccc(Oc4ccnc5cc(OC)c(OC)cc45)c3)cc2)CC1 | not fulfilled |
| CCC(=O)Nc1ccc(N2CCC(NC(=O)Nc3cccc(Oc4ccnc5cc(OC)c(OC)cc45)c3)CC2)c(C(F)(F)F)c1 | not fulfilled |
| COc1cc2nccc(Oc3cccc(NC(=O)Nc4ccc(N5CCC(NS(=O)(=O)C6CC6)CC5)c(C(F)(F)F)c4)c3)c2cc1OC | fulfilled |
| COc1cc2nccc(Oc3cccc(NC(=O)Nc4ccc(N5CCC(NC(=O)C6CCOCC6)CC5)c(C(F)(F)F)c4)c3)c2cc1OC | not fulfilled |
| CCC(=O)NC1CCCN(c2ccc(NC(=O)Nc3cccc(Oc4ccnc5cc(OC)c(OC)cc45)c3)cc2C(F)(F)F)C1 (centres undefined) | fulfilled |
| COc1cc2nccc(Oc3cccc(NC(=O)Nc4ccc(N5CCC(NS(C)(=O)=O)CC5)c(C(F)(F)F)c4)c3)c2cc1OC | not fulfilled |
| COc1cc2nccc(Oc3cccc(NC(=O)Nc4ccc(N5CCC(NC(=O)C6CCCN(C(=O)OC(C)(C)C)C6)CC5)c(C(F)(F)F)c4)c3)c2cc1OC (centres undefined) | fulfilled |
| COc1cc2nccc(Oc3cccc(NC(=O)Nc4ccc(N5CCC(NC(=O)CCC6CCCCN6C)CC5)c(C(F)(F)F)c4)c3)c2cc1OC (centres undefined) | fulfilled |
